Target: human PD-L1 (human) (UniProt Q9NZQ7)
Sequence (Q9NZQ7 19-290): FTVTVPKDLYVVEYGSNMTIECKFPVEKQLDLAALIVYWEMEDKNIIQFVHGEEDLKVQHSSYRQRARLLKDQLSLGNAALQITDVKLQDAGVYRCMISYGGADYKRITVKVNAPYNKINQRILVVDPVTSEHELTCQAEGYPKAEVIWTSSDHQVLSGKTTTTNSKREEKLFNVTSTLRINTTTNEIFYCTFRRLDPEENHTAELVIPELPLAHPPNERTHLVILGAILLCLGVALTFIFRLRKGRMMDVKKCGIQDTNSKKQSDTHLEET
Assay: flow cytometry, CHO cells expressing huPD-L1; MFI ratio to WT CD80 ECD-Fc (R&D)
reported.endpoint: Fold change to WT

>>> observed_measurement("variant CD80 IgV-Fc Q33L/E35D/M47L/V68M/L85Q/E88D (Fc fusion) VIHVTKEVKEVATLSCGHNVSVEELAQTRIYWLKDKKMVLTMMSGDLNIWPEYKNRTIFDITNNLSIMILALRPSDEGTYECVVQKYDKDAFKREHLAEVTLSVKAD")
"15.8 fold"
>>> observed_measurement("variant CD80 IgV-Fc H18L/V22A/E35D/M47L/N48T/L85Q (Fc fusion) VIHVTKEVKEVATLSCGLNVSAEELAQTRIYWQKDKKMVLTMMSGDLTIWPEYKNRTIFDITNNLSIVILALRPSDEGTYECVVQKYEKDAFKREHLAEVTLSVKAD")
"12.3 fold"
>>> observed_measurement("variant CD80 IgV-Fc E7D/E35D/M47I/L97Q (Fc fusion) VIHVTKDVKEVATLSCGHNVSVEELAQTRIYWQKDKKMVLTMMSGDINIWPEYKNRTIFDITNNLSIVILALRPSDEGTYECVVLKYEKDAFKREHQAEVTLSVKAD")
"1.84 fold"
>>> observed_measurement("variant CD80 IgV-Fc A26E/Q33L/E35D/M47L/L85Q (Fc fusion) VIHVTKEVKEVATLSCGHNVSVEELEQTRIYWLKDKKMVLTMMSGDLNIWPEYKNRTIFDITNNLSIVILALRPSDEGTYECVVQKYEKDAFKREHLAEVTLSVKAD")
"7.89 fold"
>>> observed_measurement("variant CD80 IgV-Fc Q33L/E35D/T41S/M47V (Fc fusion) VIHVTKEVKEVATLSCGHNVSVEELAQTRIYWLKDKKMVLSMMSGDVNIWPEYKNRTIFDITNNLSIVILALRPSDEGTYECVVLKYEKDAFKREHLAEVTLSVKAD")
"5.52 fold"
>>> observed_measurement("variant CD80 IgV-Fc H18Y/E35D/V68M/L97Q (Fc fusion) VIHVTKEVKEVATLSCGYNVSVEELAQTRIYWQKDKKMVLTMMSGDMNIWPEYKNRTIFDITNNLSIMILALRPSDEGTYECVVLKYEKDAFKREHQAEVTLSVKAD")
"15.3 fold"
>>> observed_measurement("variant CD80 IgV-Fc E35D/M47V/A71G/L85M/L97Q (Fc fusion) VIHVTKEVKEVATLSCGHNVSVEELAQTRIYWQKDKKMVLTMMSGDVNIWPEYKNRTIFDITNNLSIVILGLRPSDEGTYECVVMKYEKDAFKREHQAEVTLSVKAD")
"7.77 fold"
>>> observed_measurement("variant CD80 IgV-Fc A26E/E35D/M43T/M47L/L85Q/R94Q (Fc fusion) VIHVTKEVKEVATLSCGHNVSVEELEQTRIYWQKDKKMVLTMTSGDLNIWPEYKNRTIFDITNNLSIVILALRPSDEGTYECVVQKYEKDAFKQEHLAEVTLSVKAD")
"8.57 fold"
